- Test system: P. falciparum Dd2 (PfLuc) line expressing firefly luciferase, asexual blood stage
- test.description: microbe, parasite or virus in culture
- Assay type: cell-based, Plasmodium falciparum
- condition.set: Plasmodium falciparum, DD2; 11-pt dose response, 96hr; read-out: P. falciparum Luciferase ABS 11-pt Reconfirmation Dose Response (96hr): Maximum inhibition (%)
Below: a set of entries, each annotated with reported Emax.
Report the figure in % without appending any unit label.

Guide cases for Emax, answers given:
1) c1cncc(N2CCCC3(CCN(CCN4CCCC4)CC3)C2)c1 = 99.7
2) COCCN(C)Cc1cc(Cl)ccc1OCC(O)CN1CCCCCC1 (centres unmarked) = 101
3) COCCn1ccnc1CN(Cc1ccccn1)Cc1sccc1C = 99.1

Record lookup: for P. falciparum Dd2 (PfLuc) line expressing firefly luciferase, asexual blood stage, what Emax belongs to OCCN1CCC(CNCc2ccccc2OC(F)(F)F)CC1 ? 88.7

Another compound to check: Cc1cc(CN2CCc3nc(-c4ccncc4)nc(O)c3CC2)c(C)s1 93.4

Another compound to check: CC(C)(C)c1nccc(C2(c3ccccc3Cl)CCNCC2)n1 98.3

Another compound to check: CS(=O)(=O)CCCNC1(c2cccc(Cl)c2)CCCC1 88

Another compound to check: CCc1ccc(C2c3nc[nH]c3CCN2Cc2nccn2CC)nc1 (centres unmarked) 98.8

The reported numbers originate from paper PMC7155171.
